B1: Syntaxin-binding protein 4, residues 493 to 538; numbered along this chain, Q6ZWJ1 (parent)
chain: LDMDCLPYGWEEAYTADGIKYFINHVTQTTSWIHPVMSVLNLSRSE

Variants of: B1
Experiment: abundance fitness (aPCA) (normalised: wild type 0, dead -1); higher = more abundant; growth selection in yeast, the domain comes from the species named
Conditions: Homo sapiens
Param threshold (-0.6) applies to abundance fitness; output Met when value >= threshold, Not met when value < threshold.

Y8K ... Met
N41S ... Met
H34Q ... Met
S31T ... Met

Ask | Given the entry W32P , answer whether its abundance fitness meets or surpasses -0.6.
Reply | Met

Ask | D17S , same question.
Reply | Not met

Ask | Another: E12R
Reply | Not met

Ask | Input S45E
Reply | Met

Ask | And what about the variant T27W ?
Reply | Met

Ask | Okay, and H25C ?
Reply | Not met

Ask | How about L1E ?
Reply | Met

Ask | # repeat for Y8D
Reply | Met

Ask | And then L42V , what is it?
Reply | Met

Ask | Next variant up: P35Q
Reply | Not met

Ask | Please answer likewise for T15C
Reply | Not met
